Test system: NF-κ B
Experiment: Inhibitory activity of NF-κ B activation, luciferase reporter assay in HepG2 under TNF-α stimulation
Format: cell-based, human
Settings: 1 μg/mL; HepG2, TNF-α (40 ng/ml), 4 hours
RECORDED METRIC: Inhibitory Ratio of NF-κ B Activation(%) Drug Concentration 1 μg/mL
Numbers only here, please. The scale is %.

Record request: Inhibitory Ratio of NF-κ B Activation(%) Drug Concentration 1 μg/mL value, item `O=C(Nc1cc(C(F)(F)F)cc(C(F)(F)F)c1)c1cc(Br)ccc1O`
94.9

Record request: Inhibitory Ratio of NF-κ B Activation(%) Drug Concentration 1 μg/mL value, item O=C(Nc1cc(C(F)(F)F)ccc1C(F)(F)F)c1cc(Br)ccc1O [Compound No. 268]
87.1

Record request: Inhibitory Ratio of NF-κ B Activation(%) Drug Concentration 1 μg/mL value, item `O=C(Nc1cc(F)cc(C(F)(F)F)c1)c1cc(Cl)ccc1O`
94.7

====

Test system: NF-κ B
Experiment: Inhibitory activity of NF-κ B activation, luciferase reporter assay in HepG2 under TNF-α stimulation
Format: cell-based, human
Conditions: 1 μg/mL; HepG2, TNF-α (40 ng/ml), 4 hours
Lab note: compare Inhibitory Ratio of NF-κ B Activation(%) Drug Concentration 1 μg/mL against 90%. Equal or greater, write criterion met. Smaller, write criterion not met.

O=C(Nc1cc(C(F)(F)F)cc(C(F)(F)F)c1)c1cc(NC(=S)Nc2ccccc2)ccc1O
criterion not met
COc1ccc(Oc2ccc(C(F)(F)F)cc2NC(=O)c2cc(Cl)ccc2O)cc1
criterion met
COc1cc(NC(=O)c2cc(Br)ccc2O)cc(C(F)(F)F)c1
criterion not met
COc1cc(NC(=O)c2cc(Br)ccc2O)cc(OC)c1
criterion not met
O=C(Nc1cc(C(F)(F)F)cc(C(F)(F)F)c1)c1cc(N=Nc2ccc([N+](=O)[O-])cc2)ccc1O
criterion met
CC(C)(C)C(=O)c1sc(NC(=O)c2cc(Br)ccc2O)nc1C(C)(C)C
criterion not met
CCOc1ccc(OCC)c(NC(=O)c2cc(Cl)ccc2O)c1
criterion not met
O=C(Nc1cc([N+](=O)[O-])ccc1Cl)c1cc(Cl)ccc1O
criterion met
COC(=O)C(C#N)=Cc1ccc(O)c(C(=O)Nc2cc(C(F)(F)F)cc(C(F)(F)F)c2)c1
criterion not met
O=C(Nc1ccccc1)c1ccc(Cl)c(NC(=O)c2cc(Cl)ccc2O)c1
criterion not met

Hi team, for `CCOC(=O)c1sc(NC(=O)c2cc(-n3cccc3)ccc2O)nc1-c1ccccc1` , is the recorded Inhibitory Ratio of NF-κ B Activation(%) Drug Concentration 1 μg/mL at or above 90%?
criterion not met

Hi team, for `Cc1ccc(S(=O)(=O)c2ccc(Cl)c(NC(=O)c3cc(Cl)ccc3O)c2)cc1` , is the recorded Inhibitory Ratio of NF-κ B Activation(%) Drug Concentration 1 μg/mL at or above 90%?
criterion not met

Hi team, for `O=C(Nc1cc(C(F)(F)F)cc(C(F)(F)F)c1)c1cc(-c2ccsc2)ccc1O` , is the recorded Inhibitory Ratio of NF-κ B Activation(%) Drug Concentration 1 μg/mL at or above 90%?
criterion not met

Hi team, for `COc1cccc(C(=O)Nc2cc(C(F)(F)F)cc(C(F)(F)F)c2)c1O` , is the recorded Inhibitory Ratio of NF-κ B Activation(%) Drug Concentration 1 μg/mL at or above 90%?
criterion not met

====

Test system: Vascular smooth muscle cells of normal coronary artery (Cryo CASMC)
Experiment: Inhibitory test against proliferation of vascular smooth muscle cells of normal coronary artery under proliferation stimulation (MTS assay)
Format: cell-based
Conditions: 250 nM; FGF and EGF stimulation, 72 hours
RECORDED METRIC: Inhibitory Ratio of Proliferation(%) Compound Concentration 250 nM
Numbers only here, please. The scale is %.

O=C(Nc1cc(C(F)(F)F)cc(C(F)(F)F)c1)c1cc(C=Cc2ccccc2)ccc1O
34.0

Record request: Inhibitory Ratio of Proliferation(%) Compound Concentration 250 nM value, item `O=C(Nc1cc(C(F)(F)F)cc(C(F)(F)F)c1)c1ccc(Cl)cc1O`
26.2

Record request: Inhibitory Ratio of Proliferation(%) Compound Concentration 250 nM value, item `COc1cc(NC(=O)c2cc(Br)ccc2O)cc(C(F)(F)F)c1`
12.1

Record request: Inhibitory Ratio of Proliferation(%) Compound Concentration 250 nM value, item `O=C(Nc1cc(C(F)(F)F)cc(C(F)(F)F)c1)c1ccc2ccccc2c1O`
81.6

====

Tested on: IL-8
Test: Inhibition of IL-8 production by TNFα stimulation in synovial fibroblasts derived from a rheumatoid patient (ELISA)
Format: cell-based, human
Settings: Homo sapiens, Fibroblast; comparison compounds; synovial fibroblasts, TNFα stimulation; read-out: Inhibition against Mediator Release IC50(nM) IL-8
Listing: IC50 of selected molecules

The following molecules have reported results that may help.
O=C(Nc1ccc(C(F)(F)F)cc1)c1cc(Cl)ccc1O [Reference Example 6, reference compound]
> 1000 nM
O=C(Nc1cccc(C(F)(F)F)c1)c1cc(Br)ccc1O [Reference Example 4, reference compound]
> 1000 nM
O=C(Nc1ccc(F)cc1F)c1cc([N+](=O)[O-])ccc1O [drawing 564, reference compound]
> 1000 nM
O=C(Nc1ccc(Cl)c(C(F)(F)F)c1)c1cc(Br)ccc1O [Reference Example 5, reference compound]
> 1000 nM

Record request: IC50 value, item O=C(Nc1ccc(F)cc1F)c1cc(I)ccc1O [reference compound]
> 1000 nM

Record request: IC50 value, item O=C(Nc1ccc(-c2ccccc2)cc1)c1cc(C(F)(F)F)ccc1O [reference compound]
> 1000 nM

Record request: IC50 value, item O=C(Nc1ccc(C(F)(F)F)cc1Cl)c1cc(Br)ccc1O [Reference Example 7, reference compound]
> 1000 nM

Record request: IC50 value, item CC(=O)c1ccc(NC(=O)c2cc(I)ccc2O)cc1 [reference compound]
> 1000 nM

Record request: IC50 value, item O=C(Nc1ccccc1C(F)(F)F)c1cc(Cl)ccc1O [Reference Example 2, reference compound]
> 1000 nM

====

System: Vascular smooth muscle cells of normal coronary artery (Cryo CASMC)
Test: Inhibitory test against proliferation of vascular smooth muscle cells of normal coronary artery under proliferation stimulation (MTS assay)
Format: cell-based
Conditions: 250 nM; FGF and EGF stimulation, 72 hours
RECORDED METRIC: Inhibitory Ratio of Proliferation(%) Compound Concentration 250 nM
Value and unit, in that order.

The following molecules have reported results that may help.
O=C(Nc1cc(C(F)(F)F)cc(C(F)(F)F)c1)c1cc(Cl)ccc1O [Compound No.4]
87.9%
O=C(Nc1cc(C(F)(F)F)cc(C(F)(F)F)c1)c1cc(-c2ccsc2)ccc1O [Compound No. 29]
52.2%
CC(C)(C)c1cc(NC(=O)c2cc(Br)ccc2O)cc(C(C)(C)C)c1 [Compound No. 140]
4.3%
O=C(Nc1cc(C(F)(F)F)ccc1Cl)c1cc(Br)ccc1O [Compound No. 90]
89.5%

Record request: Inhibitory Ratio of Proliferation(%) Compound Concentration 250 nM value, item CC(C)(C)c1ccc(O)c(C(=O)Nc2cc(C(F)(F)F)cc(C(F)(F)F)c2)c1 [compound 11]
86.7%

====

Listing: Inhibitory Ratio of NF-κ B Activation(%) Drug Concentration 10 μg/mL of selected molecules
Test system: NF-κ B
Assay: Inhibitory activity of NF-κ B activation, luciferase reporter assay in HepG2 under TNF-α stimulation
Type: cell-based, human
Conditions: 10 μg/mL; HepG2, TNF-α (40 ng/ml), 4 hours
Numbers only here, please. The scale is %.

The following molecules have reported results that may help.
O=C(Nc1cc(C(F)(F)F)cc(C(F)(F)F)c1)c1c(O)ccc2ccccc12
97.9
CCOC(=O)c1sc(NC(=O)c2cc(-c3ccc(F)cc3F)ccc2O)nc1-c1ccccc1
90.3
CON=C(C)c1ccc(O)c(C(=O)Nc2cc(C(F)(F)F)cc(C(F)(F)F)c2)c1
98.3
CC(=O)Oc1ccc(Cl)cc1C(=O)Nc1cc(C(C)(C)C)cc(C(C)(C)C)c1
94.7
O=C(Nc1cc(C(F)(F)F)cc(C(F)(F)F)c1)c1cc(Br)c(O)cc1O
86.5
O=C(Nc1ccc(Cl)nc1)c1cc(Cl)ccc1O
92.3
O=C(Nc1cc([N+](=O)[O-])ccc1Cl)c1cc(Cl)ccc1O
95.7
COc1ccc(C(C)(C)c2ccccc2)cc1NC(=O)c1cc(Cl)ccc1O
98.3
CCOC(=O)c1sc(NC(=O)c2cc(-c3ccc(F)cc3)ccc2O)nc1-c1ccccc1
85.8
Cc1ccc(C(=O)Nc2cc(C(F)(F)F)cc(C(F)(F)F)c2)c(O)c1
94.5

Record request: Inhibitory Ratio of NF-κ B Activation(%) Drug Concentration 10 μg/mL value, item `COc1ccccc1Oc1ccc(C(F)(F)F)cc1NC(=O)c1cc(Cl)ccc1O`
98.2

Record request: Inhibitory Ratio of NF-κ B Activation(%) Drug Concentration 10 μg/mL value, item `CCC(C)(C)c1ccc(Oc2ccccc2)c(NC(=O)c2cc(Cl)ccc2O)c1`
98.3

Record request: Inhibitory Ratio of NF-κ B Activation(%) Drug Concentration 10 μg/mL value, item `O=C(Nc1ccccc1)Nc1ccc(O)c(C(=O)Nc2cc(C(F)(F)F)cc(C(F)(F)F)c2)c1`
88.4

Record request: Inhibitory Ratio of NF-κ B Activation(%) Drug Concentration 10 μg/mL value, item `O=C(Nc1cc(Cl)cc(Cl)c1)c1cc(F)ccc1O`
97.0

Record request: Inhibitory Ratio of NF-κ B Activation(%) Drug Concentration 10 μg/mL value, item `O=C(Nc1cc(C(F)(F)F)cc(C(F)(F)F)c1)c1cc(-c2cccs2)ccc1O`
97.8

Record request: Inhibitory Ratio of NF-κ B Activation(%) Drug Concentration 10 μg/mL value, item `O=C(Nc1cc(C(F)(F)F)cc(C(F)(F)F)c1)c1c(O)cccc1O`
97.3

Record request: Inhibitory Ratio of NF-κ B Activation(%) Drug Concentration 10 μg/mL value, item `CC(C)NC(=O)c1sc(NC(=O)c2cc(Br)ccc2O)nc1-c1ccccc1`
91.3
